The molecules listed here are annotated with their pIC50.
Test system: Plasmodium falciparum
Test: microbe, parasite or virus in culture
Details: Dd2, 72 h
pIC50: −log10 of the molar value.

sample.smiles	cmp	pIC50
CCCCCCCCCCCCN/C=C1\N=C(c2ccc[nH]2)C=C1OCc1ccc(OC(F)(F)F)cc1	=	6.46
CCCCCCCCCCCCN/C=C1\N=C(c2ccc[nH]2)C=C1OCc1ccc(Cl)cc1	=	6.47
CCCCCc1cc(/C=C2\N=C(c3ccc[nH]3)C=C2Oc2ccccc2)[nH]c1C.Cl	=	8.41
CCCCCCCCCCCc1ccc(/C=C2\N=C(c3ccc[nH]3)C=C2OCC)[nH]1.Cl	=	8.46
CCCCCc1cc(/C=C2\N=C(c3ccc[nH]3)C=C2OCC)[nH]c1C.Cl	=	8.88
CC(C)CN/C=C1\N=C(c2ccc[nH]2)C=C1Oc1ccc(OC(F)(F)F)cc1	<	5.60
CCCCCCCCCCCCN/C=C1\N=C(c2ccc[nH]2)C=C1OC	=	7.16
CCCOC1=CC(c2ccc[nH]2)=N/C1=C\NCC(C)C.Cl	=	7.81
CCCOC1=CC(c2ccc[nH]2)=N/C1=C\NC12CC3CC(CC(C3)C1)C2.Cl	=	8.84
CC(C)CN/C=C1\N=C(c2ccc[nH]2)C=C1OCc1ccc(Cl)cc1	=	7.21
C1=C(OCc2ccccc2)/C(=C/NC23CC4CC(CC(C4)C2)C3)N=C1c1ccc[nH]1.Cl	=	8.13
CCCCCCCCCCCc1ccc(/C=C2\N=C(c3ccc[nH]3)C=C2OCc2ccc(OC(F)(F)F)cc2)[nH]1	<	5.60
CCCCCCCCCCCc1ccc(/C=C2\N=C(c3ccc[nH]3)C=C2OCc2ccc(Cl)cc2)[nH]1	=	6.03
CCCCCCCCCCCc1ccc(/C=C2\N=C(c3ccc[nH]3)C=C2OC(C)C)[nH]1.Cl	=	7.74
CCCCCc1cc(/C=C2\N=C(c3ccc[nH]3)C=C2OCCC)[nH]c1C.Cl	=	9.30
CCCCCc1cc(/C=C2\N=C(c3ccc[nH]3)C=C2OCc2ccc(Cl)cc2)[nH]c1C.Cl	=	8.35
Cl.FC(F)(F)Oc1ccc(OC2=CC(c3ccc[nH]3)=N/C2=C\NC23CC4CC(CC(C4)C2)C3)cc1	=	6.62
Cl.Clc1ccc(COC2=CC(c3ccc[nH]3)=N/C2=C\NC23CC4CC(CC(C4)C2)C3)cc1	=	8.07
CCCCCCCCCCCc1ccc(/C=C2\N=C(c3ccc[nH]3)C=C2OCCC)[nH]1.Cl	=	8.12
CCCCCc1cc(/C=C2\N=C(c3ccc[nH]3)C=C2OCc2ccccc2)[nH]c1C.Cl	=	8.37
CCCCCC1=C/C(=C\c2[nH]c(-c3ccc[nH]3)cc2OC)N=C1C	=	8.14
CCCCCCCCCCCCN/C=C1\N=C(c2ccc[nH]2)C=C1Oc1ccc(OC(F)(F)F)cc1	<	5.60
CCCCCCCCCCCCN/C=C1\N=C(c2ccc[nH]2)C=C1OCC.Cl	=	8.01
CCCOC1=CC(c2ccc[nH]2)=N/C1=C\NC1CCCCCC1.Cl	=	9.20
CCCCCCCCCCCC1=N/C(=C\c2[nH]c(-c3ccc[nH]3)cc2OC)C=C1	=	8.12
CCCCCCCCCCCc1ccc(/C=C2\N=C(c3ccc[nH]3)C=C2Oc2ccccc2)[nH]1.Cl	=	7.09
CCCCCc1cc(/C=C2\N=C(c3ccc[nH]3)C=C2Oc2ccc(Cl)cc2)[nH]c1C.Cl	=	8.15
Clc1ccc(COC2=CC(c3ccc[nH]3)=N/C2=C\NC2CCCCCC2)cc1	=	7.10
CCCCCCCCCCCc1ccc(/C=C2\N=C(c3ccc[nH]3)C=C2OCc2ccccc2)[nH]1.Cl	=	7.58
CC(C)CN/C=C1\N=C(c2ccc[nH]2)C=C1OC(C)C.Cl	=	7.42
CCCCCCCCCCCCN/C=C1\N=C(c2ccc[nH]2)C=C1OCc1ccccc1.Cl	=	7.22
Cl.FC(F)(F)Oc1ccc(COC2=CC(c3ccc[nH]3)=N/C2=C\NC2CCCCCC2)cc1	=	7.41
Clc1ccc(OC2=CC(c3ccc[nH]3)=N/C2=C\NC2CCCCCC2)cc1	=	6.17
CCCCCCCCCCCCN/C=C1\N=C(c2ccc[nH]2)C=C1OC(C)C.Cl	=	7.43
CC(C)CN/C=C1\N=C(c2ccc[nH]2)C=C1Oc1ccc(Cl)cc1	<	5.60
CC(C)CN/C=C1\N=C(c2ccc[nH]2)C=C1Oc1ccccc1	=	5.77
Cl.Clc1ccc(OC2=CC(c3ccc[nH]3)=N/C2=C\NC23CC4CC(CC(C4)C2)C3)cc1	=	7.66
CC(C)CN/C=C1\N=C(c2ccc[nH]2)C=C1OCc1ccc(OC(F)(F)F)cc1	=	6.69
CCCCCCCCCCCc1ccc(/C=C2\N=C(c3ccc[nH]3)C=C2Oc2ccc(Cl)cc2)[nH]1	=	5.85
